Item-by-item account of inhibition at 100 µM
MEASUREMENT TARGET: recombinant human plasminogen activator inhibitor-1 (PAI-1) (Homo sapiens)
Construct: purchased Molecular Innovations, Royal Oak, Mich
Sequence (P05121 24-402): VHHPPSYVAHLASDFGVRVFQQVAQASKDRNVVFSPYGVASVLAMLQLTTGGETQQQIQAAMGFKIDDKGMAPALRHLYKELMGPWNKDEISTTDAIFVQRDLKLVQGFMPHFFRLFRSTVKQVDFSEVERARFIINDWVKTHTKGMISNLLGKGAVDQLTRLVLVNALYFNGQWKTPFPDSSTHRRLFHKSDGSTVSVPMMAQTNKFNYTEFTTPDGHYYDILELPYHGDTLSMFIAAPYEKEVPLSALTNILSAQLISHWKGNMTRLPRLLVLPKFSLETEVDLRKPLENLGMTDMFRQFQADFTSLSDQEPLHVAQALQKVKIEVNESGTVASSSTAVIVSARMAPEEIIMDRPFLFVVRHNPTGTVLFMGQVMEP
ASSAY METHOD TEXT: Primary screen for the PAI-1 inhibition (chromogenic tPA activity, Spectrozyme-tPA)
Format: biochemical
CONDITION: compound at 100 μM
I only need the number, in %, no unit after it.

C=CCn1cc(Cn2oc(=O)[nH]c2=O)c2cc(OCc3cc(C(F)(F)F)cc(C(F)(F)F)c3)ccc21 100
C=CCn1cc(Cn2oc(=O)[nH]c2=O)c2cc(OCc3ccc(C(F)(F)F)cc3)ccc21 96
CC(C)(C)c1ccc(COc2cccc(-c3ccc(Cn4oc(=O)[nH]c4=O)cc3)c2)cc1 60
O=c1[nH]c(=O)n(Cc2cn(Cc3ccccc3)c3ccc(OCc4ccc(Cl)c(Cl)c4)cc23)o1 79
COc1cc(Cn2oc(=O)[nH]c2=O)cc(OCc2ccc(C(F)(F)F)cc2)c1OCc1ccc(C(F)(F)F)cc1 95
O=c1[nH]c(=O)n(Cc2cccc(OCc3cccc(Br)c3)c2OCc2cccc(Br)c2)o1 95

Record O=c1[nH]c(=O)n(Cc2cccc(-c3cccc(OCc4ccc(Cl)cc4)c3)c2)o1 . Reported inhibition at 100 µM: 100

Record Cc1cccc(COc2ccc(Cn3oc(=O)[nH]c3=O)cc2OCc2cccc(C)c2)c1 . Reported inhibition at 100 µM: 92

Record Cc1cccc(COc2cccc(Cn3oc(=O)[nH]c3=O)c2OCc2cccc(C)c2)c1 . Reported inhibition at 100 µM: 80

Record O=c1[nH]c(=O)n(Cc2ccc(C#CCOc3cccc(Cl)c3)cc2)o1 . Reported inhibition at 100 µM: 85

Record O=c1[nH]c(=O)n(Cc2cccc(C#CCOc3ccc(Br)cc3)c2)o1 . Reported inhibition at 100 µM: 85

Record O=c1[nH]c(=O)n(Cc2ccc(C#CCOc3cc(C(F)(F)F)cc(C(F)(F)F)c3)cc2)o1 . Reported inhibition at 100 µM: 87

Record O=c1[nH]c(=O)n(Cc2cn(Cc3ccccc3)c3ccc(OCc4cccc(Br)c4)cc23)o1 . Reported inhibition at 100 µM: 94

Record CC(C)(C)c1ccc(OCC#Cc2cccc(Cn3oc(=O)[nH]c3=O)c2)cc1 . Reported inhibition at 100 µM: 77

----------
MEASUREMENT TARGET: recombinant human plasminogen activator inhibitor-1 (PAI-1) (Homo sapiens)
Construct: purchased Molecular Innovations, Royal Oak, Mich
ASSAY METHOD TEXT: Primary screen for the PAI-1 inhibition (chromogenic tPA activity, Spectrozyme-tPA)
Format: biochemical
CONDITION: compound at 100 μM
ENDPOINT NAME: inhibition at 100 µM (%)
I only need the number, in %, no unit after it.

Field: example entries. Status: answers known.
O=c1[nH]c(=O)n(Cc2cn(Cc3ccccc3)c3ccc(OCc4ccc(C(F)(F)F)cc4)cc23)o1 100
O=c1[nH]c(=O)n(Cc2cccc(C#CCOc3cc(C(F)(F)F)cc(C(F)(F)F)c3)c2)o1 84
O=c1[nH]c(=O)n(Cc2cc(OCc3ccccc3Br)cc(OCc3ccccc3Br)c2)o1 91
O=c1[nH]c(=O)n(Cc2cc(OCc3cccc(Cl)c3)cc(OCc3cccc(Cl)c3)c2)o1 85
O=c1[nH]c(=O)n(Cc2cccc(-c3cccc(OCc4ccccc4)c3)c2)o1 96
O=c1[nH]c(=O)n(Cc2cn(Cc3ccccc3)c3ccc(OCc4ccc(Br)cc4)cc23)o1 100
COc1cc(Cn2oc(=O)[nH]c2=O)cc(OCc2cccc(Cl)c2)c1OCc1cccc(Cl)c1 91
COc1cc(Cn2oc(=O)[nH]c2=O)cc(OCc2ccccc2Br)c1OCc1ccccc1Br 89

Entry C#CCn1cc(Cn2oc(=O)[nH]c2=O)c2cc(OCc3cccc(Br)c3)ccc21 under recombinant human plasminogen activator inhibitor-1 (PAI-1) (Homo sapiens) had inhibition at 100 µM of 100
